- assay.explanation: yeast display, Sf9 membrane polyspecificity reagent, FACS + sequencing; frameworks hold sequencing errors
readout.kind: polyreactivity (PSR sort gate)

QVQLLESGGGLVQAGGSLRLSCAASGSIFYLYAMGWYIQAPGKERELVAVIRRGGSTKYADSVKGRFTISRDNSKNSVYLQMNSLKPEDTAVYDCNVVGYAYGWQYDYWGQGTQVNVSS: high polyreactivity
QVQLVESGGGLVQAGGILRLSCAASGFIFNSYAMGWYRQAPGKERELVAAITKSGGRTYYADSVKGRFTISRDNEKNTVYFQMNSLKPEDTAVYYCAARAYRSSVYRGDYWGQGTQVTVSS: high polyreactivity
QVQLVESGGGLVQAGGSLRLSCAASGRTFVPYAMGWYRQAPGKEREFVAAISSRVGSTYYADSVKGRFTISRDNAKNTVYLQMNSLKQEDTAVYYCNAPFKPAGFYSAWKYDYWGQGTQVTVSS: low polyreactivity
QVQLVESGGGLVQAGGSLRLSCAASGSTLIDNVMGWYRQAPGKERELVASITSSDGTTYADSVKGRFTISRDNAKNTVYLQMNSLKPEDTAVYYCAARPWYGTYNYWGQGTQVTVSS: low polyreactivity
QVQLVESGGGLVQAGGSLRLSCAASGGTFDTYDMGWYRQAPGKERELVAAIRFGDGTTYYADSVKGRFTISRDNAKNTVYLQMNSLKPEDTAVYYCAAVFVWQPQYDQFRYDYWGQGTQVTVSS: low polyreactivity
QVQLVESGGGLVQAGGSLRLSCAASGFTFSYYAMGWYRQAPGKERELVASISRSGNTYYADSVKGRFTISRDNAKNSVYLQMNSLKPEDTAVYYCAAAYKSYYLDGTYYYWGQGTQVTVSS: high polyreactivity
QVQHVESGGGLVQAGGSLRLSCAASGSTLGGYVMGWYRQAPGKERELVASITYSGGSTRYADSVKGRFTISRDNAKNTVYLQMNSLKPEDTAVYYCAAGAQRTYYTYSFRRVGYDYDYWGQGTQVTVSS: low polyreactivity
QVQLVESGGGLVQAGGSLRLSCAASGRTFRRYTMGWYRQAPGKESELVATISSGGSTYADSVKGRFTISLDNAKNTVYLQMNSLKPEDTAVYYCAARYDVAWYSKRYSWGQGTQVTVSS: high polyreactivity
QVQLVESGGGLVQAGGSLRLSCAASGRTFRSYTRGWYRQAAGKERELVAAINRGDRTYADSVKGRFTISRDNAKNTVYLQMNSLKPEDTAVYYCAARYYGGYGKQPRARYGYWGQGTQVTVSS: high polyreactivity
QVQLVESGGGLVQAGGSLRLSCAASGRTFKLYAMGWYRQAPGKERELVATIRRSGTRTYADSVKGRFTISRDNAKNTVYLQMNSLKPEDTAVYYCAATTYGYVYHRYDYWGQGTQVTVSS: high polyreactivity

Pending sequence:
stdin: May I ask what polyreactivity (PSR sort gate) has been recorded for QVQLVESGGGLVQAGGSLRLSCAASGFTFLPAYAMGWYRQAPGKERELVAAITRGGSTYYADSVKGRFTISRDNAKNTVYLQMNSLKPEDTAVYYCNADQKFGFYRSVGDDYWGQGTQVTVSS ?
stdout: low polyreactivity
